- System: HT29 colon
- assay_info: NCI tumour cell line growth inhibition, 48 h
measure: TGI (µM)
Answers are plain numbers, in µM.

# count of solved cases: 3
{"compound": "COc1cc(-c2nccc3[nH]c(-c4ccc5cc[nH]c5c4)nc23)cc(OC)c1OC", "TGI [µM]": 1.08}
{"compound": "Cc1ccc(S(=O)(=O)N(CC(O)COc2ccccc2)c2c(F)cccc2F)cc1 (configuration not stated)", "TGI [µM]": 36.3}
{"compound": "CCOC(=O)/C(=C/c1ccccn1)C(=O)c1ccccc1", "TGI [µM]": 30.4}

Each compound below has a reported value. Please supply its TGI.
1. OC(c1ccccc1Br)(c1ccccc1Br)C(F)(F)F
2. COC1(OC)CCc2c(sc3ncnc(Nc4cccc(Br)c4)c23)C1
3. Fc1ccc(NC(c2ccc(F)cc2)C2CCN(CCCCc3ccccc3)CC2)cc1 (configuration not stated)
4. O=C(Nc1ccc(OC(F)(F)Cl)cc1)c1cnc(N2CC[C@@H](O)C2)c(-c2ccn[nH]2)c1

A)
1. 38.3
2. 45.1
3. 3.03
4. 12.1

Each compound below has a reported value. Please supply its TGI.
1. OCCCCC#Cc1ccccc1C#Cc1cccc(C(F)(F)F)c1
2. CCN1/C(=C/C#C/C(C)=C\c2sc3ccc(Cl)cc3[n+]2CC)Sc2ccc(Cl)cc21
3. O=C(O)CCCc1ccc2c(c1)CC1(C2)Cc2cc3c(cc2C1)CCCC3
4. COc1ccc2c(C(=O)O)cc3ccccc3c2c1OC
5. CC(C)C(Cl)CCC(C)(Cl)C(=O)CBr (configuration not stated)

A)
[23.4, 14, 30.4, 48.9, 11.6]

Each compound below has a reported value. Please supply its TGI.
1. O=[N+]([O-])c1cccc2nc3ccccc3c(NCCCCCNc3c4ccccc4nc4cccc([N+](=O)[O-])c34)c12
2. COCCOC1=C(Cl)C(=O)c2ccccc2C1=O
3. N#Cc1c(NC(=O)C(F)(F)F)sc2c3c(=O)c4ccccc4c(=O)c=3oc3ccccc3c12
4. CC(C)Cc1ccc(C(C)/C=C2\CCC(CN(C)C)C2=O)cc1 (configuration not stated)
5. COC(=O)[C@H](Cc1ccccc1)NC(=O)c1ccc(CNC(=O)/C=C/c2csc(-c3ccccc3)n2)cc1

A)
1. 0.0922
2. 25.5
3. 41.6
4. 31.5
5. 43.1

TGI for Cc1cc(N(CCC#N)CCC#N)ccc1/C(N=Nc1ccccc1)=N\NC(=O)c1cc(Cl)ccc1O is 35.4

----------
- System: SF-539 CNS
- assay_info: NCI tumour cell line growth inhibition, 48 h
Label T for high-side TGI (at or above 50 µM) and F for low-side TGI (below it).

Q) Reported TGI reaches at least 50 µM for Cc1cnc(C(=O)NNc2nc3sc4c(c3c(=O)[nH]2)C(C)CCC4)cn1 (stereo unspecified) ?
A) F

Q) Reported TGI reaches at least 50 µM for COC(=O)C1=C(C(=O)OC)C2(c3ccccc3)OC1(c1ccccc1)c1cc3ccccc3cc12 ?
A) F

Q) Reported TGI reaches at least 50 µM for Cc1cc(O)c(/C=N/C(N)=S)c(=O)o1 ?
A) T

Q) Reported TGI reaches at least 50 µM for O=S(=O)(/N=C(\NO)Nc1ccc(Cl)cc1)c1cc(C(F)(F)F)cc(C(F)(F)F)c1 ?
A) F

Q) Reported TGI reaches at least 50 µM for Oc1c(N2CCCCC2)cc(-c2cc(N3CCCCC3)c(O)c3ccccc23)c2ccccc12 ?
A) T

Q) Reported TGI reaches at least 50 µM for NC1=NC2(COC(c3ccccc3)(c3ccccc3)c3ccccc3)OC(COC(c3ccccc3)(c3ccccc3)c3ccccc3)C(O)C2O1 (stereo unspecified) ?
A) T

Q) Reported TGI reaches at least 50 µM for CC(=O)NC1C(OCC(=O)NCCNc2ccc([N+](=O)[O-])c3[nH]c4ccccc4c(=O)c23)C(O)C(CO)OC1(C)OCc1ccccc1 (stereo unspecified) ?
A) T

Q) Reported TGI reaches at least 50 µM for COc1ccc2c(C(=O)O)cc3ccccc3c2c1OC ?
A) T

Q) Reported TGI reaches at least 50 µM for CCCCCCCCCCCC[C@@H](O)[C@H]1CC[C@H]([C@H](O)CC[C@H](O)[C@@H]2CC[C@@H](CCCCCCCC3=C[C@H](C)OC3=O)O2)O1 ?
A) T

Q) Reported TGI reaches at least 50 µM for O=C1CC(c2ccc(Cl)cc2)=Nc2ccccc2N1 ?
A) T

Q) Reported TGI reaches at least 50 µM for CCOC(=O)c1c2c(n(-c3ccc(C)cc3)c1C)-c1ccccc1C(=O)C2(C(=O)OCC)C(=O)OCC ?
A) T

These data points were gathered from PubChem BioAssay (NCI).
